- assayed target: T1, small ubiquitin-like modifier protein 1 (SUMO1) domain, wild type (UniProt P63165 1-97)
- T1 construct: SUMO1, single domain; also called WT SUMO; WT SUMO1; source: BL21(DE3) T1R cells, purified (Ni-NTA, TEV cleavage, Source15Q, Superdex200); not shown: His8, N-terminal, cleaved
- T1 sequence (P63165 1-97): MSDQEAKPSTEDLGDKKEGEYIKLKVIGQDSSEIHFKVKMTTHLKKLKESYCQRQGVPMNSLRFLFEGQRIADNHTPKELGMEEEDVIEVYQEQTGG
- experimental details: ITC; 50–100 μM SIM peptide in the cell, SUMO in the syringe; 25 °C; 20 mM HEPES (pH 7.0 or 8.0) or 20 mM MES (pH 6.5), 150 mM KCl, 1 mM MgCl2, 1 mM DTT, 1 mM EGTA; 1:1 binding model
- condition label: both partners purified
recorded metric: Kd

Record KVDVIDLTIESSSDEEEDPPAKR [SUMO interaction motif (SIM) peptide derived from the PIASx protein] , field Kd: 15 to 20 µM
